assay: self-splicing fitness, log relative to wild type (ln ratio); higher = more splicing; Tetrahymena group I intron in knt gene, E. coli kanamycin selection, DiMSum; sequences stand for … in CUCUCU…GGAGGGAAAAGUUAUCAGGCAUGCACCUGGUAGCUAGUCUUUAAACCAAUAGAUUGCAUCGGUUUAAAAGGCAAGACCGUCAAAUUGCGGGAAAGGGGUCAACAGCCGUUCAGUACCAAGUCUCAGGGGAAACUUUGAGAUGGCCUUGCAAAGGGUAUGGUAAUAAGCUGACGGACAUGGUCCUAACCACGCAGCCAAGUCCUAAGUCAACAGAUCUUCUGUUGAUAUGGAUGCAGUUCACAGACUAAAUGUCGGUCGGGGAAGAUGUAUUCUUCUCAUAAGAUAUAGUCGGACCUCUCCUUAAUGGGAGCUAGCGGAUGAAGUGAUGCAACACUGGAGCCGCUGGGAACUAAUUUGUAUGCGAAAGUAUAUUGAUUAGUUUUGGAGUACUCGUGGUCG; conditions: 37 °C;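 further: selection with 25 µg/mL kanamycin versus none on LB agar overnight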
Kindly return T if reported self-splicing fitness (ln) is no lower than -1; return F if it is lower.

primary_sequence	qualitative_label
GUCCAGCAAUAUUACGUACU	F
GUGCAGCAAUAUUACGUCUU	T
GGCUAGCAAUAUUACGACGG	F
GACUAGCAAUAUUACGCAAU	F

I'd appreciate it if you could say whether GAUUAGCAAUAUUACGACAU has self-splicing fitness (ln) at least equal to -1.
T

I'd appreciate it if you could say whether AUACAGCAAUAUUACGUGGA has self-splicing fitness (ln) at least equal to -1.
F

I'd appreciate it if you could say whether UGCGAGCAAUAUUACGUGGG has self-splicing fitness (ln) at least equal to -1.
F

I'd appreciate it if you could say whether CUAGAGCAAUAUUACGCCUA has self-splicing fitness (ln) at least equal to -1.
F

I'd appreciate it if you could say whether CUCAAGCAAUAUUACGGGCC has self-splicing fitness (ln) at least equal to -1.
F

I'd appreciate it if you could say whether ACCCAGCAAUAUUACGCAAA has self-splicing fitness (ln) at least equal to -1.
T

I'd appreciate it if you could say whether ACCGAGCAAUAUUACGUAGC has self-splicing fitness (ln) at least equal to -1.
F

I'd appreciate it if you could say whether ACUAAGCAAUAUUACGAAAC has self-splicing fitness (ln) at least equal to -1.
F

I'd appreciate it if you could say whether GAGAAGCAAUAUUACGAUAU has self-splicing fitness (ln) at least equal to -1.
T

I'd appreciate it if you could say whether CACGAGCAAUAUUACGAGUC has self-splicing fitness (ln) at least equal to -1.
F

I'd appreciate it if you could say whether UGAGAGCAAUAUUACGGAGG has self-splicing fitness (ln) at least equal to -1.
F

These data points were gathered from the supplement of paper PMC7877785.
